Reference source: patent US6699481B2

testSystem: HveA (200t) (Homo sapiens)
Sequence (Q92956 39-202 limits assumed): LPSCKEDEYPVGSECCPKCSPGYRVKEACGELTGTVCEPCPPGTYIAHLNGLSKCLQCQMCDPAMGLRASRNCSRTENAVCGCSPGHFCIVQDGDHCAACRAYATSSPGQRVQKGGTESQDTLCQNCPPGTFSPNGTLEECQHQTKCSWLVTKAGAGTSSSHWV
assayComment: competition ELISA, gD-1(306t) binding with immobilized HveA (200t)
measurementContext: FIG. 4C
Bridge positions count the residues as written; N and C are the ends. Ends that are not written are not given here. * marks the point of attachment. Acm = CC(=O)NC*
quantity: inhibitory effect upon binding of gD-1 with HveA

substance	valueReported
BP-1 (4, 10 Acm): linear BP-1 peptide generated by reduction and alkylation of the 26-mer peptide, SEQ ID NO:1 (SISC(Acm)SRGLVC(Acm)LLPRLTNESGNDRFDS)	no inhibitory effect
BP-2 (3, 9 Ala): linear form of BP-2 generated by substitution of the cysteine residues with alanine, SEQ ID NO:2 (GSADGFRVAYMH; Peptide corresponds to BP-2 (3,9 Ala))	no inhibitory effect
scrambled sequence BP-2: scrambled primary sequence of the parental cyclic BP-2, maintaining the position of the two cysteines, SEQ ID NO:6 (YMCRFVDGCHGS; disulfide 3-9 (inferred))	no inhibitory effect
ICVVQDWGHHRCT [cyclic control peptide, reference compound]	no inhibitory effect
